molecular target: UniProt:Q64133; assay: Inhibition of MAO A in mouse GL26 cells preincubated for 20 mins followed by 14C-labeled 5-hydroxytryptamine addition and measured after 20 mins by scintillation counter analysis
Sequence (Q64133 whole entry): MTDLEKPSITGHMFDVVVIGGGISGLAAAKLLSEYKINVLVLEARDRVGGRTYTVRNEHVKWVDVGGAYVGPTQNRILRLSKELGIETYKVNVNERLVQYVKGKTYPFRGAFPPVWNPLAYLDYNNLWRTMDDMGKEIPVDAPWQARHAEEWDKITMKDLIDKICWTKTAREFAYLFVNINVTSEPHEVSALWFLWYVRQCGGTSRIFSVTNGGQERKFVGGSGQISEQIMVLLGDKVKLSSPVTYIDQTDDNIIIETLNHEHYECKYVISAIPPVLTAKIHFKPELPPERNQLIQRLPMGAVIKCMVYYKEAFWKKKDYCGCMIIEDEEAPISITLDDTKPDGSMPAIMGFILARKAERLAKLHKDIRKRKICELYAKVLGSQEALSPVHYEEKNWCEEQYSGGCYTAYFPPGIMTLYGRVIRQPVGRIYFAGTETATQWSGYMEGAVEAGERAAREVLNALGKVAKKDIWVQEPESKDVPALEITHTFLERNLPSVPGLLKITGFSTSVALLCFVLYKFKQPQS
endpoint: IC50 (nM)

The following molecules have reported results that may help.
record.smiles: C#CCN(C)CCCOc1cccc(N(CC)C(=O)c2cc(C(C)C)c(O)cc2O)c1Cl
study.system: UniProt:Q64133
number: 2270
--
record.smiles: C#CCN(C)CCCOc1ccc(N(C)C(=O)c2cc(C(C)C)c(O)cc2O)cc1Cl
study.system: UniProt:Q64133
number: 1770

1: C#CCN(C)CCCOc1cccc(NC(=O)c2cc(C(C)C)c(O)cc2O)c1Cl
2: C#CCN(C)CCCOc1cc(N(CCC)C(=O)c2cc(C(C)C)c(O)cc2O)ccc1Cl
I'm curious whether 1 or 2 has the smaller IC50 number. Which is it? Your choice should be expressed through its label.
2

* * *

system: U-251; test: Antiproliferative activity against human Temozolomide-resistant U-251 cells assessed as inhibition of cell growth measured after 48 hrs by MTT assay; format: functional, cell-based; conditions: U-251, 48 h
Readings of IC50 for the listed compounds
The answer is to be given in nM; state only the numeric part.

record.smiles: C#CCN(C)CCCOc1ccc(N(C)C(=O)c2cc(C(C)C)c(O)cc2O)cc1Cl
IC50, nM: 840

Query compound follows.
Could you share which IC50 value was measured for `C#CCN(C)CCCOc1ccc(N(CC)C(=O)c2cc(C(C)C)c(O)cc2O)cc1Cl` ?
260

* * *

test: Antiproliferative activity against human patient-derived, TMZ-resistant and concurrent chemo-radiotherapy (CCRT)-resistant P1S cell assessed as inhibition of cell growth measured after 72 hrs by CCK8 method; format: functional, cell-based
endpoint: pIC50
Value format note: pIC50 is -log10 of concentration (mol/L); just state the number.

record.smiles: C#CCN(C)CCCOc1ccc(N(C)C(=O)c2cc(C(C)C)c(O)cc2O)cc1Cl
pIC50: 6.07

Query compound follows.
Could you share which pIC50 value was measured for `C#CCN(C)CCCOc1ccc(N(CC)C(=O)c2cc(C(C)C)c(O)cc2O)cc1Cl` ?
6.17

* * *

Readings of IC50 for the listed compounds
system: U-251; test: Antiproliferative activity against human Temozolomide-resistant U-251 cells assessed as inhibition of cell growth measured after 48 hrs by MTT assay; assay type: functional, cell-based; conditions: U-251, 48 h

The following compounds have reported results that may help.
record.smiles: C#CCN(C)CCCOc1ccc(NC(=O)c2cc(C(C)C)c(O)cc2O)cc1Cl
IC50: > 10 µM

record.smiles: CC(C)c1cc(-c2n[nH]c(=O)n2-c2ccc3c(ccn3C)c2)c(O)cc1O
IC50: > 10 µM

Could you share which IC50 value was measured for `C#CCN(C)CCCOc1ccc(N(CCC)C(=O)c2cc(C(C)C)c(O)cc2O)cc1Cl` ?
> 10 µM
